measured_on: CaCYP51 D278N (Candida albicans, UniProt P10613, D278N)
assay_text: Azole ligand binding (type II difference spectra)
applied_conditions: 4 μM protein, 22°C, ± standard deviation, triplicate, read-out: dissociation constant (Kd)
readout_name: pKd
The scale used: pKd is minus the common logarithm of the concentration in molar units.

Req: Consider the compound shown here: OC(Cn1cncn1)(Cn1cncn1)c1ccc(F)cc1F What is its recorded pKd?
Resp: 6.92

* * *

// pIC50 lookup, one value per entry
measured_on: CaCYP51 Y257H (Candida albicans, UniProt P10613, Y257H)
assay_text: CYP51 reconstitution assay
applied_conditions: mean ± SD, duplicate
Formally, pIC50 is defined as -log10 of the concentration c, with c in mol/L.

Consider the worked cases shown below.
- CCC(C)n1ncn(-c2ccc(N3CCN(c4ccc(OCC5COC(Cn6cncn6)(c6ccc(Cl)cc6Cl)O5)cc4)CC3)cc2)c1=O (stereo not drawn): 6.47
- OC(Cn1cncn1)(Cn1cncn1)c1ccc(F)cc1F: 6.29

--- query ---
Req: Given the entry CC[C@@H]([C@H](C)O)n1ncn(-c2ccc(N3CCN(c4ccc(OC[C@@H]5CO[C@@](Cn6cncn6)(c6ccc(F)cc6F)C5)cc4)CC3)cc2)c1=O , report its measured pIC50.
Resp: 6.21

* * *

measured_on: CaCYP51 F449Y (Candida albicans, UniProt P10613, F449Y)
assay_text: CYP51 reconstitution assay
applied_conditions: mean ± SD, duplicate
readout_name: IC50
Write your answer as a measured quantity: the number, then the unit.

- CC[C@@H]([C@H](C)O)n1ncn(-c2ccc(N3CCN(c4ccc(OC[C@@H]5CO[C@@](Cn6cncn6)(c6ccc(F)cc6F)C5)cc4)CC3)cc2)c1=O [Posaconazole, posaconazole]: 366 nM
- CCC(C)n1ncn(-c2ccc(N3CCN(c4ccc(OCC5COC(Cn6cncn6)(c6ccc(Cl)cc6Cl)O5)cc4)CC3)cc2)c1=O (stereo not drawn) [Itraconazole, itraconazole]: 222 nM

Here is another molecule to look at.
Req: So what does the record say about IC50 for OC(Cn1cncn1)(Cn1cncn1)c1ccc(F)cc1F [Fluconazole, fluconazole] ?
Resp: 245 nM

* * *

measured_on: CaCYP51 D278N (Candida albicans, UniProt P10613, D278N)
assay_text: CYP51 reconstitution assay
applied_conditions: mean ± SD, duplicate
Protocol: Azole antifungal agents were added in 2.5 μl dimethyl sulfoxide, followed by 10 min of incubation at 37°C prior to assay initiation with 4 mM β-NADPH-Na4. The samples were then shaken for 15 min at 37°C. […]
# IC50 per entry
Respond numerically; units are nM and should not be typed.

* OC(Cn1cncn1)(Cn1cncn1)c1ccc(F)cc1F | 838
* CCC(C)n1ncn(-c2ccc(N3CCN(c4ccc(OCC5COC(Cn6cncn6)(c6ccc(Cl)cc6Cl)O5)cc4)CC3)cc2)c1=O (stereo not drawn) | 545

Req: Dear colleague, I am looking for the recorded IC50 of the following compound: CC[C@@H]([C@H](C)O)n1ncn(-c2ccc(N3CCN(c4ccc(OC[C@@H]5CO[C@@](Cn6cncn6)(c6ccc(F)cc6F)C5)cc4)CC3)cc2)c1=O
Resp: 908

* * *

Overview of reported remaining activity at 4 µM across a group of compounds:
measured_on: CaCYP51 R467K (Candida albicans, UniProt P10613, R467K)
Construct: made in house; host or cells: E. coli DH5α (pCWori+)
assay_text: CYP51 reconstitution assay
Type: biochemical
applied_conditions: 0.25 h, 4 μM triazole, % of activity without triazole, read-out: Residual CYP51 activity (%) ± SD
Give the number; % is assumed, so skip it.

Would you please look over these solved cases?
* CC[C@@H]([C@H](C)O)n1ncn(-c2ccc(N3CCN(c4ccc(OC[C@@H]5CO[C@@](Cn6cncn6)(c6ccc(F)cc6F)C5)cc4)CC3)cc2)c1=O [Posaconazole, posaconazole] | 3.62
* CCC(C)n1ncn(-c2ccc(N3CCN(c4ccc(OCC5COC(Cn6cncn6)(c6ccc(Cl)cc6Cl)O5)cc4)CC3)cc2)c1=O (stereo not shown) [Itraconazole, itraconazole] | 0.45
* C[C@@H](c1ncncc1F)[C@](O)(Cn1cncn1)c1ccc(F)cc1F [Voriconazole, voriconazole] | 0.52

Req: Find the recorded remaining activity at 4 µM belonging to OC(Cn1cncn1)(Cn1cncn1)c1ccc(F)cc1F [Fluconazole, fluconazole] and report it.
Resp: 3.34
